- testMethodNotes: Thermogravimetric (TGA) analysis
- Type: physicochemical
- condition: TGA 20° C. to 350° C., 10° C./min, nitrogen
Parameter threshold = 3%. Response is yes (1) when Weight loss (%) at about 170° C. or less meets or exceeds it, else no (0).

>  <molecule>
N#Cc1ccc(COc2cccc(N3CCN(Cc4nc5ccc(C(=O)O)cc5n4C[C@@H]4CCO4)CC3)n2)nc1.N=C(N)NCCC[C@H](N)C(=O)O [Comparative Example 2]

>  <classLabel>
yes (1)

$$$$
>  <molecule>
N#Cc1ccc(COc2cccc(N3CCN(Cc4nc5ccc(C(=O)O)cc5n4C[C@@H]4CCO4)CC3)n2)nc1 [Comparative Example 1]

>  <classLabel>
yes (1)

$$$$
>  <molecule>
N#Cc1ccc(COc2cccc(N3CCN(Cc4nc5ccc(C(=O)[O-])cc5n4C[C@@H]4CCO4)CC3)n2)nc1.[K+] [Comparative Example 4]

>  <classLabel>
yes (1)

$$$$
>  <molecule>
N#Cc1ccc(COc2cccc(N3CCN(Cc4nc5ccc(C(=O)O)cc5n4C[C@@H]4CCO4)CC3)n2)nc1 [Example 3]

>  <classLabel>
no (0)

$$$$
>  <molecule>
CNC[C@H](O)[C@@H](O)[C@H](O)[C@H](O)CO.N#Cc1ccc(COc2cccc(N3CCN(Cc4nc5ccc(C(=O)O)cc5n4C[C@@H]4CCO4)CC3)n2)nc1 [Comparative Example 3]

>  <classLabel>
no (0)

$$$$
